value.type: melting point

Record excerpt, results attached:
# molecule, value.type, observed.measurement
records = [
    ("COC(=O)c1ccc(S(=O)Cc2cccc(Cl)c2)cn1 (centres undefined)", "melting point", "75 to 77 °C"),
    ("Cc1ccc(-c2ccc(C(=O)Nc3ccc4cc(CN5CCCC5)cnc4c3)cc2)cc1", "melting point", "206 to 208 °C"),
    ("COc1ccc(Nc2ncnc(NCc3ccco3)n2)cc1", "melting point", "184 to 186 °C"),
    ("CC(C)n1nc(-c2c(Cl)nc(N)nc2-c2ccccc2)ccc1=O", "melting point", "235 to 237 °C"),
    ("CCCc1nc(C(C)(C)O)c(C(=O)OCOC(=O)C(C)(C)C)n1Cc1ccc(-c2ccccc2C(=O)OC(C)(C)C)cc1", "melting point", "106 to 107 °C"),
    ("N#Cc1ccccc1N1CCN(CCCCCC(=O)O)CC1", "melting point", "120 °C"),
    ("Clc1ncnc2c1c(Nc1ccccc1)nn2Cc1ccccc1", "melting point", "135 °C"),
    ("COC(=O)C1=C(S(=O)(=O)NC(=O)Nc2nc(OC)nc(OC)n2)CCC1", "melting point", "168 to 169 °C"),
]

Dear reader, for each entry below, please note its melting point.
1. CC(=O)c1ccc2c(c1)CCc1ccc(C#N)cc1S2
2. CC(C(=O)O)c1ccc(-c2nc3ccccc3o2)c(F)c1 (centres undefined)
3. CCOC(=O)c1cn(C)c2nc3cc(N4CCNC(c5ccc(N)cc5)C4)c(F)cc3cc2c1=O (racemic)
4. Cc1nc(-c2cn(-c3cc(-c4ccc(C(F)(F)F)cc4)cc(C(F)(F)F)n3)cn2)sc1S(=O)(=O)NC(C)(C)C
5. CCCCCCCN(CCCCCSc1nc(-c2ccc(O)cc2)c(-c2ccc(O)cc2)[nH]1)C(=O)Nc1ccc(F)cc1F
6. COc1cccc(CN2Cc3cc(OC)c(OCc4ccccc4)cc3C(OC)C2)c1 (centres undefined)

Response given:
1: 138 to 141 °C; 2: 168 to 171 °C; 3: 180 to 182 °C; 4: 260 °C; 5: 110 to 112 °C; 6: 96 to 97 °C

* * *

value.type: melting point

Record excerpt, results attached:
# compound, value.type, observed.measurement
data = [
    ("Cc1cccc(-c2n[nH]cc2-c2ccc(F)c(-c3cn(C)cn3)c2)n1", "melting point", "168 to 169 °C"),
    ("COc1ccccc1C(=O)c1noc(CC(N)=O)n1", "melting point", "149 to 150 °C"),
    ("COC(=O)C1=C(C)NC(C)=C(C(=O)OCCCCCCCCN)C1c1cccc([N+](=O)[O-])c1 (stereo not given)", "melting point", "129 to 131 °C"),
    ("COc1ccc(N2C(=O)c3ccc(Cl)cc3C2CC(=O)N2CCN(C)CC2)cc1 (stereo not given)", "melting point", "169 to 171 °C"),
]

Dear reader, for each entry below, please note its melting point.
1. COC(=O)c1ccc2c(c1)C(CNC(=O)OC(C)(C)C)CCC2 (stereo not given)
2. Cc1c(-c2ccccc2)oc2c(S(=O)(=O)NCCO)cccc2c1=O
3. Cc1nc(-c2ccc3c(c2)CCCC3)c(CO)o1
4. O=C(c1cccs1)c1cnn2c(-c3cccc(-c4nnn(CCN5CCCC5)n4)c3)ccnc12
5. CCOC(=O)Cc1c[nH]c2nc(Nc3ccccc3)nn2c1=O
6. CCCCc1nc(C(C)=O)c(C#N)[nH]1

Response given:
72 to 80 °C
186 to 187 °C
132 to 133 °C
98 °C
255 to 257 °C
77 to 78 °C
